- Tested on: Acinetobacter baumannii ATCC17961
- measurement-notes: Antimicrobial susceptibility testing: 90% growth inhibitory concentration (IC90) determination in Iso-Sensitest broth, OD600 growth
- Format: cell-based
- condition-notes: Acinetobacter baumannii, ATCC17961, 16 h, strain ATCC 17961, OD600 growth over 16 h, read-out: A. baumannii ATCC 17961 IC90
Counter-ions that a name gives are not always drawn.
Mark 1.0 only when IC90 stays strictly below 200 nM. Values equal to the cut-off are 0.0.

- compound: "NC1CN(C(=O)CNC(=O)c2ccc(Nc3nccn4c(-c5c[nH]nc5C(F)(F)F)cnc34)cc2Cl)C1 [Example 141]"
  group-label: 0.0
- compound: "Cc1cc(Nc2nccn3c(-c4c[nH]nc4C(F)(F)F)cnc23)cc(F)c1C(=O)N1CCNCC1 [Example 86]"
  group-label: 0.0
- compound: "CCc1cc(Nc2nccn3c(-c4c[nH]nc4C(F)(F)F)cnc23)ccc1C(=O)NCCCNC(=O)[C@H]1C[C@H](N)C1 [Example 532]"
  group-label: 0.0
- compound: "CCc1cc(Nc2nccn3c(-c4cn(CC(=O)O)nc4C(F)(F)F)cnc23)ccc1C(=O)NCCOCCN [Example 271]"
  group-label: 0.0
- compound: "CCc1cc(Nc2nccn3c(-c4cn(CC(F)F)nc4C(F)(F)F)cnc23)ccc1C(=O)NCCOCC(C)(C)N [Example 50]"
  group-label: 1.0
- compound: "N[C@@H]1CC[C@@H](NC(=O)c2ccc(Nc3nccn4c(-c5c[nH]nc5C(F)(F)F)cnc34)cc2Cl)C1 (racemic) [Example 407]"
  group-label: 0.0
- compound: "C#CCNC(=O)c1c(C)cc(Nc2nccn3c(-c4cn(CC#N)nc4C(F)(F)F)cnc23)cc1F [Example 4]"
  group-label: 1.0
- compound: "CCc1cc(Nc2nccn3c(-c4c[nH]nc4C(F)(F)F)cnc23)ccc1C(=O)NCCNC(=O)[C@H]1C[C@@H](N)C1 [Example 740]"
  group-label: 0.0
- compound: "CCc1cc(Nc2nccn3c(-c4cn(C5CCCC5)nc4C(F)(F)F)cnc23)ccc1C(=O)NCCOCCN [Example 26, hydrochloride]"
  group-label: 0.0
- compound: "N[C@@H]1CCN(C(=O)c2ccc(Nc3nccn4c(-c5c[nH]nc5C(F)(F)F)cnc34)cc2Cl)C1 [Example 324]"
  group-label: 0.0
- compound: "O=C(NC1CCC(NC(=O)[C@@H]2C[C@@H](O)CN2)CC1)c1ccc(Nc2nccn3c(-c4c[nH]nc4C(F)(F)F)cnc23)cc1Cl (some centres unmarked) [Example 374]"
  group-label: 0.0
- compound: "O=C(NC1CCN(C(=O)[C@@H]2C[C@@H](O)CN2)CC1)c1ccc(Nc2nccn3c(-c4c[nH]nc4C(F)(F)F)cnc23)cc1Cl [Example 381]"
  group-label: 0.0
- compound: "CCc1cc(Nc2nccn3c(-c4cn(CC(F)F)nc4C(F)(F)F)cnc23)ccc1C(=O)NCCNC(=O)[C@H]1C[C@H](N)C1 [Example 488]"
  group-label: 1.0
- compound: "O=C(CNCCNC(=O)c1ccc(Nc2nccn3c(-c4cn(CC(F)F)nc4C(F)(F)F)cnc23)cc1Cl)NC1CNC1 [Example 821]"
  group-label: 1.0

* * *

- Tested on: Acinetobacter baumannii ATCC17961
- measurement-notes: Antimicrobial susceptibility testing: 90% growth inhibitory concentration (IC90) determination in Iso-Sensitest broth, OD600 growth
- Format: cell-based
- condition-notes: Acinetobacter baumannii, ATCC17961, 16 h, strain ATCC 17961, OD600 growth over 16 h, read-out: A. baumannii ATCC 17961 IC90
Where a name gives a salt, the structure may show the parent alone.
Could you mark each record T if its IC90 falls strictly under 400 nM, and F if it equals or exceeds it?

- molecule: "NC1CCC(NC(=O)c2ccc(Nc3nccn4c(-c5c[nH]nc5C(F)(F)F)cnc34)cc2Cl)CC1 (stereo not shown) [Example 385]"
  target: "Acinetobacter baumannii ATCC17961"
  group-label: "F"
- molecule: "CCc1cc(Nc2nccn3c(-c4cn(CC(F)F)nc4C(F)(F)F)cnc23)ccc1C(=O)NCCNC(=O)[C@H]1C[C@@H](N)C1 [Example 624]"
  target: "Acinetobacter baumannii ATCC17961"
  group-label: "T"
- molecule: "O=C(NC1CNC1)N1CCN(C(=O)c2ccc(Nc3nccn4c(-c5cn(CC(F)F)nc5C(F)(F)F)cnc34)cc2Cl)CC1 [Example 581]"
  target: "Acinetobacter baumannii ATCC17961"
  group-label: "T"
- molecule: "Cc1cc(Nc2nccn3c(-c4cn(CC#N)nc4C(F)(F)F)cnc23)cc(F)c1C(=O)N[C@H](C)CN [Example 719]"
  target: "Acinetobacter baumannii ATCC17961"
  group-label: "F"
- molecule: "CCc1cc(Nc2nccn3c(-c4cn(CCCC#N)nc4C(F)(F)F)cnc23)ccc1C(=O)NC [Example 343]"
  target: "Acinetobacter baumannii ATCC17961"
  group-label: "F"
- molecule: "C#CCn1cc(-c2cnc3c(Nc4ccc(C(=O)NCCOCCN)c(CC)c4)nccn23)c(C(F)(F)F)n1 [Example 174]"
  target: "Acinetobacter baumannii ATCC17961"
  group-label: "T"
- molecule: "CCc1cc(Nc2nccn3c(-c4c[nH]nc4C(F)(F)F)cnc23)ccc1C(=O)NCCCN [Example 365, hydrochloride]"
  target: "Acinetobacter baumannii ATCC17961"
  group-label: "F"
- molecule: "N#CCn1cc(-c2cnc3c(Nc4ccc(C(=O)N5CCN(CC(=O)N[C@H]6CCNC6)CC5)c(Cl)c4)nccn23)c(C(F)(F)F)n1 [Example 605]"
  target: "Acinetobacter baumannii ATCC17961"
  group-label: "F"
- molecule: "CCc1cc(Nc2nccn3c(-c4cn(CC(N)=O)nc4C(F)(F)F)cnc23)ccc1C(=O)NCCCNC(=O)[C@@H]1CCCN1 [Example 789]"
  target: "Acinetobacter baumannii ATCC17961"
  group-label: "F"
- molecule: "CCc1cc(Nc2nccn3c(-c4cn(CC(F)F)nc4C(F)F)cnc23)ccc1C(=O)N1CCN(C(=O)C2(O)CCNCC2)CC1 [Example 764]"
  target: "Acinetobacter baumannii ATCC17961"
  group-label: "F"
- molecule: "C=CCn1cc(-c2cnc3c(Nc4ccc(C(=O)N[C@H](C)CN)c(CC)c4)nccn23)c(C(F)(F)F)n1 [Example 108]"
  target: "Acinetobacter baumannii ATCC17961"
  group-label: "T"
- molecule: "Cc1cc(Nc2nccn3c(-c4cn(CC(F)F)nc4C(F)(F)F)cnc23)cc(F)c1C(=O)NCCCCCCN [Example 615]"
  target: "Acinetobacter baumannii ATCC17961"
  group-label: "T"
- molecule: "NCC(=O)N1CC2(C1)CN(C(=O)c1ccc(Nc3nccn4c(-c5cn(CC(F)F)nc5C(F)(F)F)cnc34)cc1Cl)C2 [Example 651]"
  target: "Acinetobacter baumannii ATCC17961"
  group-label: "T"
- molecule: "CCc1cc(Nc2nccn3c(-c4cn(CC#N)nc4C(F)(F)F)cnc23)ccc1C(=O)NCCNC(=O)[C@H](C)N [Example 493, formate]"
  target: "Acinetobacter baumannii ATCC17961"
  group-label: "T"
- molecule: "NC1CCN(C(=O)c2ccc(Nc3nccn4c(-c5cn(CC(F)F)nc5C(F)(F)F)cnc34)cc2Cl)CC1 [Example 103]"
  target: "Acinetobacter baumannii ATCC17961"
  group-label: "T"
- molecule: "C[C@H]1CNCCN1C(=O)c1ccc(Nc2nccn3c(-c4c[nH]nc4C(F)(F)F)cnc23)cc1Cl [Example 325]"
  target: "Acinetobacter baumannii ATCC17961"
  group-label: "F"
- molecule: "CCOCCCNC(=O)c1ccc(Nc2nccn3c(-c4cn(CC#N)nc4C(F)(F)F)cnc23)cc1CC [Example 205]"
  target: "Acinetobacter baumannii ATCC17961"
  group-label: "T"
- molecule: "N#CCn1cc(-c2cnc3c(Nc4ccc(C(=O)N5CCC(NC(=O)N[C@H]6CCNC6)CC5)c(Cl)c4)nccn23)c(C(F)(F)F)n1 [Example 11]"
  target: "Acinetobacter baumannii ATCC17961"
  group-label: "T"
- molecule: "CNC(=O)c1ccc(Nc2nccn3c(-c4cn(Cc5ccncn5)nc4C(F)(F)F)cnc23)cc1Cl [Example 281]"
  target: "Acinetobacter baumannii ATCC17961"
  group-label: "T"
- molecule: "NCCOCCNC(=O)c1ccc(Nc2nccn3c(-c4c[nH]nc4C(F)(F)F)cnc23)cc1Cl [Example 361, hydrochloride]"
  target: "Acinetobacter baumannii ATCC17961"
  group-label: "T"
- molecule: "CCc1cc(Nc2nccn3c(-c4cn(CC(F)F)nc4C(F)(F)F)cnc23)ccc1C(=O)NCC(=O)NCCN [Example 729]"
  target: "Acinetobacter baumannii ATCC17961"
  group-label: "F"
- molecule: "CNC(=O)c1ccc(Nc2nccn3c(-c4c[nH]nc4C(F)(F)F)cnc23)cc1Cl [Example 388]"
  target: "Acinetobacter baumannii ATCC17961"
  group-label: "T"
- molecule: "CCc1cc(Nc2nccn3c(-c4cn(CC(F)F)nc4C(F)(F)F)cnc23)ccc1C(=O)N1CCN(C(=O)C2CCNCC2)CC1 [Example 70]"
  target: "Acinetobacter baumannii ATCC17961"
  group-label: "F"
- molecule: "Cc1cc(Nc2nccn3c(-c4cn(CCF)nc4C(F)(F)F)cnc23)cc(F)c1C(=O)NCCOCCN [Example 61]"
  target: "Acinetobacter baumannii ATCC17961"
  group-label: "T"
- molecule: "C=CCn1cc(-c2cnc3c(Nc4cc(C)c(C(=O)N5CCNCC5)c(F)c4)nccn23)c(C(F)(F)F)n1 [Example 69]"
  target: "Acinetobacter baumannii ATCC17961"
  group-label: "F"
- molecule: "C#CCn1cc(-c2cnc3c(Nc4ccc(C(=O)N5CCC(CN)CC5)c(CC)c4)nccn23)c(C(F)(F)F)n1 [Example 46]"
  target: "Acinetobacter baumannii ATCC17961"
  group-label: "T"

Values compiled from patent US20230203043A1.
